Biological target: GABA-A receptor; anion channel (Rattus norvegicus) (UniProt O09028+P15431+P18506+P18508+P19969+P20236+P23574+P23576+P28471+P28473+P30191+P62813+P63079+P63138+Q91ZM7+Q9ES14)
Test: Ratio of IC50 (no GABA) to IC50 (GABA) was measured as GABA Shift (GS)
Type: protein-complex assay
Measured metric: GABA shift
Please state the value as a number alone, without comment.

The cases that follow already have their GABA shift on record.
Molecule smiles: O=C(Nc1ccncc1)C1=C(O)CCn2c1nc1ccccc12
Measured metric: GABA shift
Data value: 2.1

Molecule smiles: CN(C)c1ccc(NC(=O)C2=C(O)CCn3c2nc2ccccc23)c(F)c1
Measured metric: GABA shift
Data value: 1.4

Molecule smiles: O=C(Nc1ccccn1)C1=C(O)CCn2c1nc1ccccc12
Measured metric: GABA shift
Data value: 1.7

Measured GABA shift, O=C(Nc1ccnc(Cl)c1)C1=C(O)CCn2c1nc1ccccc12 : 1.1

Lookup result for O=C(Nc1cccnc1)C1=C(O)CCn2c1nc1ccccc12 ; measured GABA shift: 1.1

# GABA shift of O=C(Nc1ncccn1)C1=C(O)CCn2c1nc1ccccc12 = 1.1

GET /value?item= CN(C)c1cccc(NC(=O)C2=C(O)CCn3c2nc2ccccc23)c1 &field=GABA shift returns 1.5

O=C(NCc1cccnc1)C1=C(O)CCn2c1nc1ccccc12 yielded GABA shift of 1.1

====

Biological target: GABA-A receptor; anion channel
Assay: Binding affinity against the BZD site of the Gamma-aminobutyric acid A receptor in rat cerebral cortex using radioligand ([3H]flunitrazepam) assay in the absence of Gamma-aminobutyric acid
Format: tissue-based
Please assign 0 (no) whenever IC50 is at or above 60 nM, and 1 (yes) whenever it is below.

Worked cases, answers included:
Molecule smiles: O=C(Nc1ccnc(Cl)c1)C1=C(O)CCn2c1nc1ccccc12
Assigned class: 0 (no)

Molecule smiles: CN(C)c1ccc(NC(=O)C2=C3N(C)c4ccccc4N3CCC2=O)cc1
Assigned class: 1 (yes)

Molecule smiles: CN(C)c1ccccc1NC(=O)C1=C(O)CCn2c1nc1ccccc12
Assigned class: 0 (no)

Next, consider the following compound.
Q. Problem: For the compound CN(C)c1ccc(NC(=O)C2=C(O)CCn3c2nc2ccccc23)cc1 , is IC50 under 60 nM?
A. 0 (no)

====

# IC50 annotations
Target: GABA-A receptor; anion channel
Assay: Binding affinity against the BZD site of the Gamma-aminobutyric acid A receptor in rat cerebral cortex using radioligand ([3H]flunitrazepam) assay in the presence of Gamma-aminobutyric acid
Assay type: tissue-based
Enter your answer as a number in nM; do not include the unit.

Worked examples follow.
Molecule smiles: O=C(Nc1ccnc(Cl)c1)C1=C(O)CCn2c1nc1ccccc12
System name: GABA-A receptor; anion channel
Value units: nM
IC50: 65

Molecule smiles: O=C(Nc1ccncc1)C1=C(O)CCn2c1nc1ccccc12
System name: GABA-A receptor; anion channel
Value units: nM
IC50: 78

Molecule smiles: O=C(Nc1ccncc1Cl)C1=C(O)CCn2c1nc1ccccc12
System name: GABA-A receptor; anion channel
Value units: nM
IC50: 100

Molecule smiles: CN(C)c1ccc(NC(=O)C2=C(O)CCn3c2nc2ccccc23)c(F)c1
System name: GABA-A receptor; anion channel
Value units: nM
IC50: 87

Molecule smiles: O=C(Nc1ccccn1)C1=C(O)CCn2c1nc1ccccc12
System name: GABA-A receptor; anion channel
Value units: nM
IC50: 36

Molecule smiles: O=C(Nc1cccnc1)C1=C(O)CCn2c1nc1ccccc12
System name: GABA-A receptor; anion channel
Value units: nM
IC50: 48

Value sought: IC50, system GABA-A receptor; anion channel, item CCN1C2=C(C(=O)Nc3ccncc3)C(=O)CCN2c2ccccc21 . Result: 27

The recorded IC50 with GABA-A receptor; anion channel for CN(C)c1ccc(NC(=O)C2=C3N(C)c4ccccc4N3CCC2=O)cc1 was 16

O=C(Nc1ccc(O)cc1)C1=C(O)CCn2c1nc1ccccc12 tested on GABA-A receptor; anion channel gave IC50: 31

Nc1ccccc1NC(=O)C1=C(O)CCn2c1nc1ccccc12 on GABA-A receptor; anion channel gives IC50 = 33

For the compound O=C(NCc1ccncc1)C1=C(O)CCn2c1nc1ccccc12 , the measured IC50 on GABA-A receptor; anion channel was 69

Hey, GABA-A receptor; anion channel data for O=C(Nc1cnccn1)C1=C(O)CCn2c1nc1ccccc12 : IC50 came out at 400

Measured IC50 for this entry Cc1cnccc1NC(=O)C1=C(O)CCn2c1nc1ccccc12 on GABA-A receptor; anion channel: 12000

The compound Cc1cc(N(C)C)ccc1NC(=O)C1=C(O)CCn2c1nc1ccccc12 , tested on GABA-A receptor; anion channel, showed IC50 of 1500

Field IC50 (system: GABA-A receptor; anion channel) for entry Nc1ccc(NC(=O)C2=C(O)CCn3c2nc2ccccc23)cc1 = 3400

Lab note: compound O=C(Nc1ccncc1)c1c(O)ccn2c1nc1ccccc12 tested on GABA-A receptor; anion channel; recorded IC50 was 150

# lookup: O=C(Nc1ccncn1)C1=C(O)CCn2c1nc1ccccc12 on GABA-A receptor; anion channel, IC50 = 370

Fill in: GABA-A receptor; anion channel IC50 for CN(C)c1ccc(NC(=O)C2=C(O)CCn3c2nc2ccccc23)cc1 = 210

Record for CN(C)c1cccc(NC(=O)C2=C(O)CCn3c2nc2ccccc23)c1 under target or system GABA-A receptor; anion channel: IC50 reported as 25

Summary line: C[n+]1ccc(NC(=O)C2=C(O)CCn3c2nc2ccccc23)cc1 , GABA-A receptor; anion channel, reported IC50 = 3100

Measured IC50 for this entry O=C(NCc1cccnc1)C1=C(O)CCn2c1nc1ccccc12 on GABA-A receptor; anion channel: 140

Bench note, GABA-A receptor; anion channel: entry O=C(Nc1ccncc1F)C1=C(O)CCn2c1nc1ccccc12 , its IC50 = 20

IC50 on GABA-A receptor; anion channel for O=C(Nc1ncccn1)C1=C(O)CCn2c1nc1ccccc12 is 50
